The reported numbers originate from paper PMC9643456.

# System: MDR S. aureus
# ASSAY_REMARKS: microbe, parasite or virus in culture
# EXPERIMENTAL_PARAMETERS: CLSI broth microdilution; CAMHB with 50 mg/L Ca2+, 10 mg/L Mg2+; 5 × 10^5 CFU/ml; 18 h 37 °C; triplicate; strain KCCM 40510
Square brackets hold non-standard residues; d marks the D form. Peptide text beside a SMILES is read from it.
MEASURED_ATTRIBUTE: Minimum inhibitory concentrations, MDR S. aureus (µM)
One number for each entry, in µM.

molecule="CC[C@@H](C)[C@@H](NC(=O)[C@@H](Cc1c[nH]c2ccccc12)NC(=O)[C@@H](CC(C)C)NC(=O)[C@@H](CC(C)C)NC(=O)[C@H](N)Cc1c[nH]c2ccccc12)C(=O)NCC(=O)N[C@H](CC(C)C)C(=O)N[C@H](CCCNC(=N)N)C(=O)N[C@H](CCCCN)C(=O)N[C@H](CCCCN)C(=O)N[C@H](CCCNC(=N)N)C(N)=O [WCopW5] (H-[dW][dL][dL][dW][dI]G[dL][dR][dK][dK][dR]-NH2)" unit_text=µM measured=1.25

Return Minimum inhibitory concentrations, MDR S. aureus measured with MDR S. aureus given this molecule: CC[C@@H](C)[C@@H](NC(=O)[C@@H](Cc1c[nH]c2ccccc12)NC(=O)[C@H](NC(=O)[C@@H](CC(C)C)NC(=O)[C@H](N)Cc1c[nH]c2ccccc12)C(C)C)C(=O)N[C@H](Cc1c[nH]c2ccccc12)C(=O)N[C@H](CCCNC(=N)N)C(=O)N[C@H](CCCNC(=N)N)C(=O)N[C@H](CCCNC(=N)N)C(N)=O [WCopW29] (H-[dW][dL][dV][dW][dI][dW][dR][dR][dR]-NH2)
1.25

====

# ASSAY_REMARKS: Maximum soluble concentration / turbidity
# Format: physicochemical
# EXPERIMENTAL_PARAMETERS: lyophilized peptide reconstructed in PBS at 200-6.25 μM; visible turbidity checked every 12 h for 5 days; at least twice
# Protocol: Supplementary Methods Bacteria preparation, Antimicrobial peptides preparation, Minimal-inhibitory-concentration measurements, Hemolysis-activity measurements, Tryptophan fluorescence measurements, Isothermal titration calorimetry measurements, Bacteria membrane ion permeation measurements, Outer-inner membrane permeation, Field-emission scanning electron microscopy and Antimicrobial kinetics were performed as described in Materials and Methods. Liposome (LUV) preparation. […]
Ends that are not written are not given here.
MEASURED_ATTRIBUTE: Maximum soluble concentration in PBS

Completed entries (count: 5):
substance="WRLWRWIVR-NH2 [HLWCopW29-3]" measured="> 200 µM"
substance="GVLVWFRRR-NH2 [Ptg C-ter 2]" measured="100 µM"
substance="GVWVLFRRR-NH2 [Ptg C-ter 3]" measured="100 µM"
substance="WLVWVGRRR-NH2 [Hybrid-1]" measured="> 200 µM"
substance="LLLLLWRRR-NH2 [AcWL-2]" measured="50 µM"

Go through the list and state Maximum soluble concentration in PBS for each entry.
1. RLWWRWIVR-NH2 [HLWCopW29-4]
2. WLVWVWRRR-NH2 [Hybrid-3]
3. GVLVLFRRR-NH2 [Ptg C-ter 1]
4. RWLRWWIRV-NH2 [HLWCopW29-1]

["> 200 µM", "> 200 µM", "100 µM", "> 200 µM"]

====

# Test system: human red blood cells
# ASSAY_REMARKS: Hemolytic activity
# Assay type: cell-based
# EXPERIMENTAL_PARAMETERS: red cells of human, 18 h, 25
Square brackets hold non-standard residues; d marks the D form. Peptide text beside a SMILES is read from it.
MEASURED_ATTRIBUTE: Hemolysis percent, 25 μM
Express your answer as a number followed by its unit.

Completed entries (count: 2):
compound="CC[C@@H](C)[C@@H](NC(=O)[C@@H](Cc1c[nH]c2ccccc12)NC(=O)[C@@H](CC(C)C)NC(=O)[C@@H](CC(C)C)NC(=O)[C@H](N)Cc1c[nH]c2ccccc12)C(=O)N[C@H](C)C(=O)N[C@H](CC(C)C)C(=O)N[C@H](CCCNC(=N)N)C(=O)N[C@H](CCCCN)C(=O)N[C@H](CCCCN)C(N)=O [WCopW6] (H-[dW][dL][dL][dW][dI][dA][dL][dR][dK][dK]-NH2)" tgt="human red blood cells" measured_attribute="Hemolysis percent, 25 μM" measured=4.12%
compound="CC[C@@H](C)[C@@H](NC(=O)[C@@H](Cc1c[nH]c2ccccc12)NC(=O)[C@H](NC(=O)[C@@H](CC(C)C)NC(=O)[C@H](N)Cc1c[nH]c2ccccc12)C(C)C)C(=O)N[C@H](Cc1ccc(O)cc1)C(=O)N[C@@H](C(=O)N[C@H](CCCNC(=N)N)C(=O)N[C@H](CCCCN)C(=O)N[C@H](CCCCN)C(=O)N[C@H](CCCNC(=N)N)C(N)=O)C(C)C [WCopWVY3] (H-[dW][dL][dV][dW][dI][dY][dV][dR][dK][dK][dR]-NH2)" tgt="human red blood cells" measured_attribute="Hemolysis percent, 25 μM" measured=1.92%

Turning to the following compound.
What value of measured Hemolysis percent, 25 μM is listed for CC[C@@H](C)[C@@H](NC(=O)[C@@H](Cc1c[nH]c2ccccc12)NC(=O)[C@@H](CC(C)C)NC(=O)[C@@H](CC(C)C)NC(=O)[C@H](N)Cc1c[nH]c2ccccc12)C(=O)N[C@H](C)C(=O)N[C@H](CC(C)C)C(=O)N[C@H](CCCNC(=N)N)C(=O)N[C@H](CCCCN)C(=O)N[C@H](CCCCN)C(=O)N[C@H](CCCNC(=N)N)C(N)=O [WCopW4] (H-[dW][dL][dL][dW][dI][dA][dL][dR][dK][dK][dR]-NH2) ?
5.94%

====

# Test system: human red blood cells
# ASSAY_REMARKS: Hemolytic activity
# Type: cell-based
# EXPERIMENTAL_PARAMETERS: red cells of human, 18 h, 50
Square brackets hold non-standard residues; d marks the D form. Peptide text beside a SMILES is read from it.
Kindly supply the reported Hemolysis percent, 50 μM values for the records listed here.
Answers are plain numbers, in %.

compound="CC[C@@H](C)[C@@H](NC(=O)[C@@H](Cc1c[nH]c2ccccc12)NC(=O)[C@H](NC(=O)[C@@H](CC(C)C)NC(=O)[C@H](N)Cc1c[nH]c2ccccc12)C(C)C)C(=O)N[C@H](Cc1c[nH]c2ccccc12)C(=O)N[C@H](CCCNC(=N)N)C(=O)N[C@H](CCCNC(=N)N)C(=O)N[C@H](CCCCN)C(=O)N[C@H](CCCNC(=N)N)C(N)=O [WCopW28] (H-[dW][dL][dV][dW][dI][dW][dR][dR][dK][dR]-NH2)" measured=1.97
compound="CC[C@@H](C)[C@@H](NC(=O)[C@@H](Cc1c[nH]c2ccccc12)NC(=O)[C@H](NC(=O)[C@@H](CC(C)C)NC(=O)[C@H](N)Cc1c[nH]c2ccccc12)C(C)C)C(=O)N[C@H](Cc1ccc(O)cc1)C(=O)N[C@@H](C(=O)N[C@H](CCCNC(=N)N)C(=O)N[C@H](CCCCN)C(=O)N[C@H](CCCCN)C(=O)N[C@H](CCCNC(=N)N)C(N)=O)C(C)C [WCopWVY3] (H-[dW][dL][dV][dW][dI][dY][dV][dR][dK][dK][dR]-NH2)" measured=5.67

Turning to the following compound.
What value of measured Hemolysis percent, 50 μM is listed for CC(C)[C@@H](NC(=O)[C@H](N)Cc1c[nH]c2ccccc12)C(=O)N[C@@H](C(=O)N[C@H](Cc1c[nH]c2ccccc12)C(=O)N[C@@H](C(=O)N[C@H](Cc1c[nH]c2ccccc12)C(=O)N[C@H](CCCNC(=N)N)C(=O)N[C@H](CCCNC(=N)N)C(=O)N[C@H](CCCNC(=N)N)C(N)=O)C(C)C)C(C)C [WCopW40] (H-[dW][dV][dV][dW][dV][dW][dR][dR][dR]-NH2) ?
0.59

====

# Tested on: MDR A. baumannii
# ASSAY_REMARKS: microbe, parasite or virus in culture
# EXPERIMENTAL_PARAMETERS: CLSI broth microdilution; CAMHB with 50 mg/L Ca2+, 10 mg/L Mg2+; 5 × 10^5 CFU/ml; 18 h 37 °C; triplicate; strain ATCC BAA-1605
Square brackets hold non-standard residues; d marks the D form. Peptide text beside a SMILES is read from it.
MEASURED_ATTRIBUTE: Minimum inhibitory concentrations, MDR A. baumannii

What value of measured Minimum inhibitory concentrations, MDR A. baumannii is listed for CC[C@@H](C)[C@@H](NC(=O)[C@@H](Cc1c[nH]c2ccccc12)NC(=O)[C@@H](CCCNC(=N)N)NC(=O)[C@H](N)CCCNC(=N)N)C(=O)N[C@H](Cc1c[nH]c2ccccc12)C(=O)N[C@@H](C(=O)N[C@@H](C(=O)N[C@H](Cc1c[nH]c2ccccc12)C(=O)N[C@H](CCCNC(=N)N)C(N)=O)[C@H](C)CC)C(C)C [WCopW54] (H-[dR][dR][dW][dI][dW][dV][dI][dW][dR]-NH2) ?
0.63 µM
